Target: hGLP-1R (Homo sapiens, UniProt P43220)
Sequence (P43220 24-463): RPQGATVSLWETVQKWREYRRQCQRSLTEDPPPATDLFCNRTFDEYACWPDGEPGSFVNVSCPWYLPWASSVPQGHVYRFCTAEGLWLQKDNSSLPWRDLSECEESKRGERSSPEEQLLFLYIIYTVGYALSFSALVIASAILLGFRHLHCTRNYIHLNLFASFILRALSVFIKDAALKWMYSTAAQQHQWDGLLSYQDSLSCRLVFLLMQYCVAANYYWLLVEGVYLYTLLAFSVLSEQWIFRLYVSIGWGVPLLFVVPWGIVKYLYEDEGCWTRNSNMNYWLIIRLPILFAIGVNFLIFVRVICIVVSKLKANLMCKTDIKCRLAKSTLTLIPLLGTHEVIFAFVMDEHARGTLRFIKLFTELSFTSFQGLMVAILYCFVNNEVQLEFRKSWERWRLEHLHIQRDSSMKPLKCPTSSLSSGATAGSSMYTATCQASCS
Assay: Functional cAMP activity in the presence of 1% HSA
Assay type: cell-based
Conditions: read-out: cAMP Rel EC50, hGLP-1R
Starred links: 1 amine or outer side, 2 acyl side, 3 side chain; linkers in the order of their positions; H or OH if unused. Non-standard residues stand in square brackets, D forms with d. Groups on a side chain read outwards from the residue. No end group written: not given here. *: point of attachment. C20 diacid = O=C(O)CCCCCCCCCCCCCCCCCCC(=O)*; C18 diacid = O=C(O)CCCCCCCCCCCCCCCCC(=O)*; αMePhe(2-F) = C[C@](N)(Cc1ccccc1F)C(=O)O; γGlu = O=C(O)[C@H](CCC(=O)[*:2])N[*:1]; αMe4Pal = C[C@](N)(Cc1ccncc1)C(=O)O; αMeY = C[C@](N)(Cc1ccc(O)cc1)C(=O)O; 4Pal = N[C@@H](Cc1ccncc1)C(=O)O; αMeL = CC(C)C[C@](C)(N)C(=O)O; αMeS = C[C@](N)(CO)C(=O)O; Orn = NCCC[C@H](N)C(=O)O; AEEA = NCCOCCOCC(=O)O; Aib = CC(C)(N)C(=O)O
MEASURED_METRIC: pEC50
Formally, pEC50 is defined as -log10 of the concentration c, with c in mol/L.

Recorded pEC50 for Y[Aib]QGT[αMePhe(2-F)]TSD[4Pal][αMeS]ILLD[Orn]K([γGlu-γGlu-C18 diacid])AQ[Aib][Orn]FI[dE]YLIEGGPSSGEPPPEGGEE-NH2 [Example 605] , please?
7.25

Recorded pEC50 for H-Y[Aib]QGT[αMePhe(2-F)]TSD[4Pal]SI[αMeL]LD[Orn]K([AEEA-γGlu-C18 diacid])AQ[αMe4Pal][Orn]FI[dE]YLIEGGPSSGEPPPEGT-NH2 [Example 500] , please?
7.30

Recorded pEC50 for H-Y[Aib]QGT[αMePhe(2-F)]TSD[4Pal][αMeS]I[αMeL]LD[Orn]K([γGlu-γGlu-C18 diacid])AQ[Aib][Orn]FI[dE]YLLEGGPSSGEPPPSGTE-NH2 [Example 532] , please?
7.33

Recorded pEC50 for H-Y[Aib]QGT[αMePhe(2-F)]TSD[4Pal][αMeS]I[αMeL]LD[Orn]K([γGlu-γGlu-C18 diacid])AQ[Aib][Orn]FI[dE][αMeY]LSEGGPSSGEPPPSGTE-NH2 [Example 517] , please?
7.30

Recorded pEC50 for H-Y[Aib]QGT[αMePhe(2-F)]TSD[4Pal]SILLDKK([γGlu-γGlu-C18 diacid])AQ[Aib]AFIE[αMeY]LEEGGPSSGAPPPSGSGE-NH2 [Example 666] , please?
7.49

Recorded pEC50 for H-Y[Aib]QGTFTSDFSK[αMeL]LDKK([AEEA-γGlu-C20 diacid])AQ[Aib]AFIEYLLEGAPSSGAPPPSEG-NH2 [Example 47] , please?
5.90

Recorded pEC50 for H-Y[Aib]QGTFTSD[4Pal]SQ[αMeL]LDKK([AEEA-γGlu-γGlu-C18 diacid])AQ[αMe4Pal]AFIEYLIAGGPSSGEPPPSGS-NH2 [Example 947] , please?
6.82

Recorded pEC50 for H-Y[Aib]QGTFTSD[4Pal]SQ[αMeL]LDKK([Glu-γGlu-C18 diacid])AQ[αMe4Pal]AFIEYLIAGGPSSGAPPPSGSEE-NH2 [Example 1030] , please?
6.41

Source: patent US20240270821A1
